- appliedConditions: 70° C., 5 mbar, 2 d
# maps each entry to its PXRD

compound: Nc1nc(O)c2c(CCc3ccc(C(=O)N[C@@H](CCC(=O)O)C(=O)O)cc3)c[nH]c2n1 [Heptahydrate]
PXRD / hydrate: 2.5
//
compound: Nc1nc(O)c2c(CCc3ccc(C(=O)N[C@@H](CCC(=O)O)C(=O)O)cc3)c[nH]c2n1 [2.5 hydrate]
PXRD / hydrate: 2.5

---

- appliedConditions: daylight study, Start
HPLC-purity for assorted compounds
assayMetric: HPLC-purity (%)

compound: Nc1nc(O)c2c(CCc3ccc(C(=O)N[C@@H](CCC(=O)O)C(=O)O)cc3)c[nH]c2n1 [Heptahydrate]
assayMetric: HPLC-purity
experimentalResult: 99.63
//
compound: Nc1nc(O)c2c(CCc3ccc(C(=O)N[C@@H](CCC(=O)O)C(=O)O)cc3)c[nH]c2n1 [2.5 hydrate]
assayMetric: HPLC-purity
experimentalResult: 99.73
//
compound: Nc1nc(O)c2c(CCc3ccc(C(=O)N[C@@H](CCC(=O)O)C(=O)O)cc3)c[nH]c2n1 [Form A]
assayMetric: HPLC-purity
experimentalResult: 99.71
//
compound: Nc1nc(O)c2c(CCc3ccc(C(=O)N[C@@H](CCC(=O)O)C(=O)O)cc3)c[nH]c2n1 [Form IV]
assayMetric: HPLC-purity
experimentalResult: 99.83
